# Test system: MCF-7 breast cancer cells
# assay_protocol: Inhibition of MCF-7 breast cancer cell proliferation
# Assay type: cell-based
# settings: Homo sapiens, MCF7; 17β-estradiol (0.1 nM)-dependent growth, 72 h, 3H-thymidine incorporation
property_measured: IC50 (nM)
Lab book: enter the figure in nM, no units written.

// below: answered compounds
Request: Identify the reported IC50 for the following entry. O=c1oc2cc(O)ccc2c(Cc2ccc(OCCN3CCCC3)cc2)c1-c1ccc(Cl)cc1C(F)(F)F
Result: 4.1

Request: Provide measured IC50 value, entry: C=C/C(=C\C=C\OCCN1CCCC1)Cc1c(-c2ccc(C(F)(F)F)cc2)c(=O)oc2cc(O)ccc12
Result: 15.8

Request: For the compound O=c1oc2cc(O)ccc2c(Cc2ccc(OCCN3CCCC3)cc2)c1-c1ccc(Cl)cc1Cl , give its measured IC50 value.
Result: 5.4

Request: Give recorded IC50. O=c1oc2cc(O)ccc2c(Cc2ccc(OCCN3CCCC3)cc2)c1-c1ccc(C(F)(F)F)cc1C(F)(F)F
Result: 19

Continue with the next compound.
Request: Consider the compound O=c1oc2cc(O)ccc2c(Cc2ccc(OCCN3CCCC3)cc2)c1-c1ccc(C(F)(F)F)cc1Cl . State its measured IC50.
Result: 5.5
